- System: 23SK skin cells
- Experiment: Flow cytometry cell cycle distribution
- Format: cell-based, human
- Test conditions: IC80 dose, G2/M
# if measured Cell Cycle Distribution At IC80 Dose (%) G2/M < 20%: satisfied  # else: not satisfied

# Compound, Class name
rows = [
    ("CN[C@H]1CCc2cc(OC)c(OC)c(OC)c2-c2ccc(OC)c(=O)cc21 [Colcemid, reference compound]", "not satisfied"),
    ("CCNCCCCNCCCCNCCCCNCCCCNCC=C(CNCC)CNCCCCNCCCCNCCCCNCCCCNCC", "satisfied"),
    ("CCNCCCCNCCCCNCCCCNCCCCNC/C=C(/CS)CNCCCCNCCCCNCCCCNCCCCNCC", "satisfied"),
    ("CCNCCCCNCC=C(CNCC)CNCCCCNCC", "satisfied"),
    ("CCNCCCCNCCCCNCCCCNCC=C(CNCC)CNCCCCNCCCCNCCCCNCC", "satisfied"),
    ("CCNCCCCNCCCCNCCCCNC/C=C(/CS)CNCCCCNCCCCNCCCCNCC", "not satisfied"),
    ("CCNCCCCNCCCCNCCCCNCC=C(CS)CNCCCCNCCCCNCCCCNCC", "not satisfied"),
    ("CCNCCCCNCCCCNCC=C(CNCC)CNCCCCNCCCCNCC", "satisfied"),
]

Reference source for all entries: patent US7314959B2
